Reference source: patent US20260207654A1

# measured-on: CCL13 (Homo sapiens)
# Sequence (Q99616 17-98, species assumed): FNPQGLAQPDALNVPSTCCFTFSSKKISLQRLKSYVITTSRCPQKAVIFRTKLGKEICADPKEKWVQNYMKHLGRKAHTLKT
# test-protocol: Chemokine glycan microarray binding assay
# condition-notes: maximum RFU set as 100% binding, average across 2 glycan concentrations and 3 chemokine dilutions (n=6)
readout-kind: mean rank binding to CCL13 (%)

compound	measured-on	quantity-unit	measured-number
NCCCO[C@@H]1OC(C(=O)O)[C@@H](O[C@H]2OC(COS(=O)(=O)O)[C@@H](O[C@@H]3OC(C(=O)O)[C@@H](O[C@H]4OC(COS(=O)(=O)O)[C@@H](O)[C@H](O)C4N)C(O)[C@@H]3O)[C@H](O)C2N)C(O)[C@@H]1O (stereo partly drawn) [Example 23]	CCL13 (Homo sapiens)	%	45
NCCOCCO[C@@H]1OC(C(=O)O)[C@@H](O[C@@H]2OC(C(=O)O)[C@@H](O[C@@H]3OC(C(=O)O)[C@@H](O)C(O)C3O)C(O)C2O)C(O)C1O (stereo partly drawn) [Example 7]	CCL13 (Homo sapiens)	%	86
NCCOCCO[C@@H]1OC(C(=O)O)[C@@H](O)C(O)C1O (stereo partly drawn) [Example 1]	CCL13 (Homo sapiens)	%	74
NCCCO[C@@H]1O[C@@H](C(=O)O)[C@@H](O[C@H]2O[C@H](CO)[C@@H](O[C@@H]3O[C@@H](C(=O)O)[C@@H](O[C@H]4O[C@H](CO)[C@@H](O)[C@H](OS(=O)(=O)O)[C@H]4N)[C@H](O)[C@H]3O)[C@H](OS(=O)(=O)O)[C@H]2N)[C@H](O)[C@H]1O [Example 22]	CCL13 (Homo sapiens)	%	58
NCCOCCO[C@@H]1OC(C(=O)O)[C@@H](O[C@@H]2OC(C(=O)O)[C@@H](O)C(O)C2O)C(O)C1O (stereo partly drawn) [Example 4]	CCL13 (Homo sapiens)	%	67
NCCOCCO[C@@H]1OC(C(=O)O)[C@@H](O[C@@H]2OC(C(=O)O)[C@@H](O[C@@H]3OC(C(=O)O)[C@@H](O[C@@H]4OC(C(=O)O)[C@@H](O)C(O)C4O)C(O)C3O)C(O)C2O)C(O)C1O (stereo partly drawn) [Example 10]	CCL13 (Homo sapiens)	%	88
